test: MTT cell viability assay, compounds at 5, 1 and 0.2 μM, 48 hours; format: cell-based; conditions: human, A549 tumor cells, 1 μM
REPORTED ENDPOINT: viability at 48 h, 1 µM

Below, each entry is followed by its recorded viability at 48 h, 1 µM result.
[[record]]
smiles_str = "Nc1cc(Oc2ccc(-c3nnc(Nc4cccc(C(F)(F)F)c4)[nH]3)cc2)nc(SCCO)n1"
reported_endpoint = "viability at 48 h, 1 µM"
reading = "> 70%"

[[record]]
smiles_str = "FC(F)(F)c1cccc(Nc2nnc(-c3cccc(Oc4cc(C(F)(F)F)nc5ccccc45)c3)[nH]2)c1"
reported_endpoint = "viability at 48 h, 1 µM"
reading = "> 70%"


Take each entry in turn and give its viability at 48 h, 1 µM.
1. CSc1nc(Oc2cccc(-c3nnc(Nc4cccc(C(F)(F)F)c4)[nH]3)c2)c2cc[nH]c2n1
2. CSc1nc(N)cc(Oc2ccc(-c3nnc(Nc4cccc(C(F)(F)F)c4F)[nH]3)cc2)n1
3. COc1cc2ncnc(Oc3cccc(-c4nnc(Nc5cccc(C(F)(F)F)c5)[nH]4)c3)c2cc1OC
4. CSc1nc(N)cc(Oc2cc(-c3nnc(Nc4cccc(C(F)(F)F)c4)[nH]3)ccc2C)n1
5. FC(F)(F)c1cccc(Nc2nnc(-c3ccc(Oc4ccnc5[nH]ccc45)cc3)[nH]2)c1

Response given:
1. > 70%
2. < 50%
3. > 70%
4. > 70%
5. 50 to 70%
